System: CONAR (field bindweed)
test name: Pre-plant incorporated (PPI) herbicidal activity, warm season
Assay type: in vivo, Convolvulus arvensis
measurement conditions: GR80 = lowest tested rate with 80% or greater inhibition, approx. 14 days after treating, 30/21° C.
result type: PPI activity (GR80) CONAR

Value sought: PPI activity (GR80) CONAR, system CONAR (field bindweed), item C=C(Br)CC(F)(F)S(=O)(=O)c1ncn(C(=O)N(CC)CC)n1 . Result: 300 g/ha

---

Below is a list of entries, each paired with its recorded inhibition at 30 g/ha value.
Tested on: SOLNI (black nightshade)
test name: Pre-plant incorporated (PPI) herbicidal activity, warm season
Assay type: in vivo, Solanum nigrum
measurement conditions: Solanum nigrum; PPI application, 30 g/ha; read-out: Percent inhibition SOLNI
Number only, in %; omit the unit.

// field: inhibition at 30 g/ha; key: C=C(C)CC(F)(F)S(=O)(=O)c1ncn(C(=O)N(CC)CC)n1 ; value = 0

// field: inhibition at 30 g/ha; key: CCSC(F)(F)S(=O)(=O)c1ncn(C(=O)N(CC)CC)n1 ; value = 50

// field: inhibition at 30 g/ha; key: CCN(CC)C(=O)n1cnc(S(=O)(=O)C(F)F)n1 ; value = 0

// field: inhibition at 30 g/ha; key: C=CCC(F)(F)S(=O)(=O)c1ncn(C(=O)N(CC)CC)n1 ; value = 0

// field: inhibition at 30 g/ha; key: CCN(CC)C(=O)n1cnc(S(=O)(=O)C(F)(F)Br)n1 ; value = 0

// field: inhibition at 30 g/ha; key: C=C(Br)CC(F)(F)S(=O)(=O)c1ncn(C(=O)N(CC)CC)n1 ; value = 0
